# assay system: CFTR ΔF508 mutant (Homo sapiens, UniProt P13569, DEL508-508)
# Construct: expressed in transfected cells; host or cells: CFBE41o- cells, adenoviral transduction
# Sequence (P13569 with tags, fused parts or gaps DEL508-508): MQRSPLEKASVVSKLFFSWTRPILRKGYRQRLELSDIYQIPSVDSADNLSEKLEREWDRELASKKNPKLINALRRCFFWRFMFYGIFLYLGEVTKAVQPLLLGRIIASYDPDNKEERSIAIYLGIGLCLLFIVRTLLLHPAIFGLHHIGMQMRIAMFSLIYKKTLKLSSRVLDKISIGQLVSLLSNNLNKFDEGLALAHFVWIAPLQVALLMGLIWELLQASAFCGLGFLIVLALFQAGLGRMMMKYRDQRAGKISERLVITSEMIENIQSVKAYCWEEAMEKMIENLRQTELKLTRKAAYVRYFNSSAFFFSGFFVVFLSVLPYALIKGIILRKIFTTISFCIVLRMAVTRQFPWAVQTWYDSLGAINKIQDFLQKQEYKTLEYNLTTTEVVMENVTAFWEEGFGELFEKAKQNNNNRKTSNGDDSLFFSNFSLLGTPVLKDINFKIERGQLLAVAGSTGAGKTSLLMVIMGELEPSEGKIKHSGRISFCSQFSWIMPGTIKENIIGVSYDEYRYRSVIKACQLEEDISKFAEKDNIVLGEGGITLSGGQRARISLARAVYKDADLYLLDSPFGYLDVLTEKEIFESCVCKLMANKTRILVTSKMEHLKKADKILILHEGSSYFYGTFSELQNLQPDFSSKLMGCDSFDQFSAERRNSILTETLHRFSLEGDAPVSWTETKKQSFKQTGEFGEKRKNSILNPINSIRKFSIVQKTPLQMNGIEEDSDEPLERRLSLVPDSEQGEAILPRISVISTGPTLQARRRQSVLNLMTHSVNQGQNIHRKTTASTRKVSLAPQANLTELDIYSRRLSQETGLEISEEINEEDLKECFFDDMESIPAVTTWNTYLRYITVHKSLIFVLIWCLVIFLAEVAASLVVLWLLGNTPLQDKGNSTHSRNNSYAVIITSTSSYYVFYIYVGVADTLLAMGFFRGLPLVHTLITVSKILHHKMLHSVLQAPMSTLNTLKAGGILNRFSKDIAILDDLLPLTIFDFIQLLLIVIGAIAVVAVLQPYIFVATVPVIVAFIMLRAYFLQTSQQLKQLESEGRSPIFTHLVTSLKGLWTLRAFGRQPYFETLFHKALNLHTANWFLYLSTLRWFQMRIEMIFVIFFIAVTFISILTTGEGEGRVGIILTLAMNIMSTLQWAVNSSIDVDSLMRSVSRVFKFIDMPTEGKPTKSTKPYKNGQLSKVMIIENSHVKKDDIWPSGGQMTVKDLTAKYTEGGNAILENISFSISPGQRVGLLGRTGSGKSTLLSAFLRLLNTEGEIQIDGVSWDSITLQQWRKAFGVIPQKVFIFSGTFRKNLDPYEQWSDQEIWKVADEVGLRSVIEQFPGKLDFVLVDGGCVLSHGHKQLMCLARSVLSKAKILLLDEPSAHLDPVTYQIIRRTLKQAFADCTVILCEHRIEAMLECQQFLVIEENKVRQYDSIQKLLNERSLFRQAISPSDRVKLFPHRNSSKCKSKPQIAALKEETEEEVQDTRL
# measurement description: YFP-halide influx assay for the CFTR-ΔF508 mutation (CFBE41o- cells)
# Format: cell-based
# recorded conditions: forskolin 10.67 μM
observed property: % Activation (%)
Give just the numeric value; % need not be written.

Worked cases, % Activation given:
| compound | scale unit | % Activation |
| --- | --- | --- |
| Nc1cc(S(=O)(=O)c2ccc(C(F)(F)F)cc2)cnc1C(=O)N1C[C@@H](O)[C@H](O)C1 | % | 24.0 |
| Nc1cc(S(=O)(=O)c2ccc(OC(F)(F)F)cc2)cnc1C(=O)N1CC(CO)C1 | % | 106.0 |
| Nc1cc(S(=O)(=O)CC2CCCO2)cnc1C(=O)NCC(O)C(F)(F)F (stereo not shown) | % | 53.7 |

Lab note: next compound to report on.
Specify the recorded % Activation for `COC[C@H](O)CNC(=O)c1ncc(S(=O)(=O)c2ccccc2)cc1N` , system: CFTR ΔF508 mutant (Homo sapiens, UniProt P13569, DEL508-508).
82.1
